Sourced from ChEMBL document CHEMBL1136009

System: PC-12
Assay: Effective concentration to induce 25 % protection of rat PC12 cells from camptothecin-induced cell death
Type: functional
Item-by-item account of EC25
Quick reminder: number only, in nM, skip the unit.

Solved entries:
compound	valueObserved
N=c1sc2c(n1CC(=O)c1ccc(F)cc1)CCCC2	300
N=c1sc2c(n1CC(=O)c1ccccc1)CCCC2	80
Nc1nc2c(s1)CCCC2	855
N=c1sc2c(n1CC(=O)c1ccc(-c3ccccc3)cc1)CCCC2	340
Br.CCC(=O)Cn1c2c(sc1=N)CCCC2	410
COc1ccc(C(=O)Cn2c3c(sc2=N)CCCC3)cc1	150
Cc1ccc(C(=O)Cn2c3c(oc2=N)CCCC3)cc1	35
Br.Cc1ccc(C(=O)Cn2c3c(sc2=N)CC(C)CC3)cc1 (centres undefined)	100
CCOC(=O)Cn1c2c(sc1=N)CCCC2	230
N=c1sc2c(n1CC(=O)c1ccc([N+](=O)[O-])cc1)CCCC2	230

Exam item: // query EC25 value for entry `N=c1sc2c(n1CC(=O)c1ccc(Cl)cc1)CCCC2`
Marked response: 120

Exam item: One more compound: `Br.N=c1sc2c(n1Cc1ccccc1)CCCC2`
Marked response: 415

Exam item: Try this compound too: `COc1ccccc1C(=O)Cn1c2c(sc1=N)CCCC2`
Marked response: 250

Exam item: Now consider `COc1cccc(C(=O)Cn2c3c(sc2=N)CCCC3)c1` .
Marked response: 340
